test: Solubility limit in recording / aqueous solutions; type: physicochemical; conditions: aqueous solutions
REPORTED METRIC: solubility

IN: Please give the measured solubility for this compound: O=c1c(O)c(-c2ccc(O)c(O)c2)oc2cc(O)cc(O)c12 [Quercetin]
OUT: ≤ 150 µM

====

assay: Solubility limit in recording / aqueous solutions; format: physicochemical; conditions: recording solutions, aqueous buffer
REPORTED METRIC: solubility

IN: Please give the measured solubility for this compound: O=c1c(O)c(-c2ccc(O)c(O)c2)oc2cc(O)ccc12 [Fisetin]
OUT: ≤ 150 µM
